The measurements presented in this section are drawn from the RNAGym collection of RNA variant scans (doi:10.1101/gr.219683.116).

Record form. Attribute: exon inclusion enrichment index. Fill in for each entry.
B1: mRNA-splicing (parent)
chain: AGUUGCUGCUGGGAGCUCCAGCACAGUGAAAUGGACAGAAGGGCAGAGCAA

variants of: B1; test: exon inclusion enrichment index; higher = more inclusion; WT1 exon 5 minigene, HEK293
Lab note: jot down the number only; don't add units.

**Q:** Find the recorded exon inclusion enrichment index belonging to G5C C6G U7C U10C G46C A47C and report it.
**A:** 2.58

**Q:** Find the recorded exon inclusion enrichment index belonging to G5C C6G U7C C9G and report it.
**A:** 1.96

**Q:** Find the recorded exon inclusion enrichment index belonging to G5C C6U G8C C9U U10C A25G and report it.
**A:** 3.66

**Q:** Find the recorded exon inclusion enrichment index belonging to C22G A23U and report it.
**A:** 0.496

**Q:** Find the recorded exon inclusion enrichment index belonging to G5A U7C G8A U10C A31C U32C and report it.
**A:** 3.58

**Q:** Find the recorded exon inclusion enrichment index belonging to G5A C6G U7G C9A A20G G21C and report it.
**A:** 0.00328

**Q:** Find the recorded exon inclusion enrichment index belonging to G5C C6U G8C C9U U10C C18G C19G and report it.
**A:** 2.78

**Q:** Find the recorded exon inclusion enrichment index belonging to C6A U7A C9A U10A U32G G33C and report it.
**A:** 0.75

**Q:** Find the recorded exon inclusion enrichment index belonging to C6A U7C C9A U10C A37C and report it.
**A:** 3.93

**Q:** Find the recorded exon inclusion enrichment index belonging to G5C C6A U7C G8A U10A A40U and report it.
**A:** 0.0713

**Q:** Find the recorded exon inclusion enrichment index belonging to C6G U7G C9A U10C and report it.
**A:** 0.246

**Q:** Find the recorded exon inclusion enrichment index belonging to G5C C6G U7C U10C A14U G15U and report it.
**A:** 1.46

**Q:** Find the recorded exon inclusion enrichment index belonging to C6A U7A C9A U10A C36G A37G and report it.
**A:** 0.0922

**Q:** Find the recorded exon inclusion enrichment index belonging to A14G G15A and report it.
**A:** 0.102

**Q:** Find the recorded exon inclusion enrichment index belonging to U4G G5A and report it.
**A:** 0.101

**Q:** Find the recorded exon inclusion enrichment index belonging to G5A C6G U7G C9A A47G G48U and report it.
**A:** 0.000624

**Q:** Find the recorded exon inclusion enrichment index belonging to G5A C6U U7A G8U C9A A25U G26U and report it.
**A:** 0.0803

**Q:** Find the recorded exon inclusion enrichment index belonging to C6A U7C C9A U10C A47U and report it.
**A:** 2.86

**Q:** Find the recorded exon inclusion enrichment index belonging to G46U A47G and report it.
**A:** 0.116

**Q:** Find the recorded exon inclusion enrichment index belonging to G5C C6A U7C G8C C9U U10A and report it.
**A:** 0.107

**Q:** Find the recorded exon inclusion enrichment index belonging to G5C C6A U7C G8A U10A A30G A31C and report it.
**A:** 0.00678

**Q:** Find the recorded exon inclusion enrichment index belonging to C6A U7A C9A U10A C24A A25G and report it.
**A:** 0.796

**Q:** Find the recorded exon inclusion enrichment index belonging to C6A U7A C9A U10A A37G G38U and report it.
**A:** 0.29

**Q:** Find the recorded exon inclusion enrichment index belonging to U4G C6G U7G C9A and report it.
**A:** 0.0187

**Q:** Find the recorded exon inclusion enrichment index belonging to A20U G21C and report it.
**A:** 2.37

**Q:** Find the recorded exon inclusion enrichment index belonging to G5C C6A U7C G8A U10A C18G C19U and report it.
**A:** 0.00896

**Q:** Find the recorded exon inclusion enrichment index belonging to G5A C6G U7G C9A G42U G43A and report it.
**A:** 0.00514

**Q:** Find the recorded exon inclusion enrichment index belonging to G5U C6A U7G C9A and report it.
**A:** 0.0473

**Q:** Find the recorded exon inclusion enrichment index belonging to G5A C6G U7G C9A G28U and report it.
**A:** 0.000687

**Q:** Find the recorded exon inclusion enrichment index belonging to G5C C6U G8C C9U U10C C18U C19G and report it.
**A:** 0.675

**Q:** Find the recorded exon inclusion enrichment index belonging to G5A U7C G8A U10C C19U A20G and report it.
**A:** 0.888

**Q:** Find the recorded exon inclusion enrichment index belonging to C6A U7A C9A U10A C22A A23C and report it.
**A:** 1.39

**Q:** Find the recorded exon inclusion enrichment index belonging to G5C C6A U7C G8A U10A C19G A20C and report it.
**A:** 0.111

**Q:** Find the recorded exon inclusion enrichment index belonging to G38U A39U and report it.
**A:** 0.000945

**Q:** Find the recorded exon inclusion enrichment index belonging to G5C C6G U7C U10C A29C A30C and report it.
**A:** 3.82

**Q:** Find the recorded exon inclusion enrichment index belonging to C6A U7C C9A U10C G42U and report it.
**A:** 3.3

**Q:** Find the recorded exon inclusion enrichment index belonging to C6A U7C G8C C9U U10C and report it.
**A:** 2.28

**Q:** Find the recorded exon inclusion enrichment index belonging to G5U G8U C9U A37C and report it.
**A:** 0.465

**Q:** Find the recorded exon inclusion enrichment index belonging to G5A C6U U7A G8U C9A A40C G41A and report it.
**A:** 0.00954

**Q:** Find the recorded exon inclusion enrichment index belonging to C6A U7C C9A U10C A14U and report it.
**A:** 1.94

**Q:** Find the recorded exon inclusion enrichment index belonging to G5A U7C G8A U10C A29C A30C and report it.
**A:** 2.73

**Q:** Find the recorded exon inclusion enrichment index belonging to C6A U7C C9A U10C G13U A14U and report it.
**A:** 2.48

**Q:** Find the recorded exon inclusion enrichment index belonging to U7G C9A U10A and report it.
**A:** 1

**Q:** Find the recorded exon inclusion enrichment index belonging to C6A U7A C9A U10C and report it.
**A:** 2.59

**Q:** Find the recorded exon inclusion enrichment index belonging to G5A C6U U7A G8U C9A G26A U27G and report it.
**A:** 0.168

**Q:** Find the recorded exon inclusion enrichment index belonging to G5A C6U U7A G8U C9A G46C A47U and report it.
**A:** 0.0869

**Q:** Find the recorded exon inclusion enrichment index belonging to G5C C6G U7C U10C U32A G33C and report it.
**A:** 3.67

**Q:** Find the recorded exon inclusion enrichment index belonging to G5A C6G U7G C9A A30C A31G and report it.
**A:** 0.00621

**Q:** Find the recorded exon inclusion enrichment index belonging to G5A C6U U7A G8U C9A G46U A47U and report it.
**A:** 0.0891

**Q:** Find the recorded exon inclusion enrichment index belonging to C6A U7C C9A U10C G15C and report it.
**A:** 4

**Q:** Find the recorded exon inclusion enrichment index belonging to A45U G46U and report it.
**A:** 0.0239

**Q:** Find the recorded exon inclusion enrichment index belonging to C6A U7A C9A U10A A23G C24A and report it.
**A:** 1.85

**Q:** Find the recorded exon inclusion enrichment index belonging to G5C C6U U7C C9U U10C and report it.
**A:** 3.09

**Q:** Find the recorded exon inclusion enrichment index belonging to G21A C22G and report it.
**A:** 2.36

**Q:** Find the recorded exon inclusion enrichment index belonging to U32A G33A and report it.
**A:** 0.0558

**Q:** Find the recorded exon inclusion enrichment index belonging to C6A U7A C9U U10G and report it.
**A:** 0.0647

**Q:** Find the recorded exon inclusion enrichment index belonging to C6A U7A C9A U10A G13C and report it.
**A:** 1.04

**Q:** Find the recorded exon inclusion enrichment index belonging to G5C C6A U7C G8A U10A G46A A47U and report it.
**A:** 0.159

**Q:** Find the recorded exon inclusion enrichment index belonging to G5A C6U U7A G8U C9A G38C and report it.
**A:** 0.0329

**Q:** Find the recorded exon inclusion enrichment index belonging to U27C G28U and report it.
**A:** 0.00627

**Q:** Find the recorded exon inclusion enrichment index belonging to G38C and report it.
**A:** 0.09

**Q:** Find the recorded exon inclusion enrichment index belonging to G5A C6G U7G C9A C16G U17G and report it.
**A:** 0.0104

**Q:** Find the recorded exon inclusion enrichment index belonging to C6A U7A C9A U10A G13C A14G and report it.
**A:** 1.42

**Q:** Find the recorded exon inclusion enrichment index belonging to G5A C6G U7G C9A G33C and report it.
**A:** 0.00196

**Q:** Find the recorded exon inclusion enrichment index belonging to G5A C6G U7G C9A C19U A20C and report it.
**A:** 0.00291

**Q:** Find the recorded exon inclusion enrichment index belonging to G5C C6G U7C U10C G12A G13A and report it.
**A:** 1.51

**Q:** Find the recorded exon inclusion enrichment index belonging to C6A U7A C9A U10A A20U G21C and report it.
**A:** 0.712

**Q:** Find the recorded exon inclusion enrichment index belonging to G5C C6A U7C G8A U10A A20U and report it.
**A:** 0.199

**Q:** Find the recorded exon inclusion enrichment index belonging to C6A U7C C9A U10C A23U C24U and report it.
**A:** 0.978

**Q:** Find the recorded exon inclusion enrichment index belonging to G5U G8U C9U A37C G38A and report it.
**A:** 0.157

**Q:** Find the recorded exon inclusion enrichment index belonging to G5A C6G U7G C9A A30G A31C and report it.
**A:** 0.00143

**Q:** Find the recorded exon inclusion enrichment index belonging to C6A U7C C9A U10C G12A and report it.
**A:** 3.18

**Q:** Find the recorded exon inclusion enrichment index belonging to C6G U7G C9A and report it.
**A:** 0.0321

**Q:** Find the recorded exon inclusion enrichment index belonging to G5C C6G U7C U10G G11C and report it.
**A:** 2.32

**Q:** Find the recorded exon inclusion enrichment index belonging to G5A U7C G8A U10C A14G and report it.
**A:** 1.38

**Q:** Find the recorded exon inclusion enrichment index belonging to G5A C6G U7G C9A G41C G42C and report it.
**A:** 0.0196

**Q:** Find the recorded exon inclusion enrichment index belonging to G5C C6U G8C C9U U10C G43A C44A and report it.
**A:** 3.42

**Q:** Find the recorded exon inclusion enrichment index belonging to G5C C6G U7C U10C A39G A40U and report it.
**A:** 0.671

**Q:** Find the recorded exon inclusion enrichment index belonging to G34A and report it.
**A:** 0.0592

**Q:** Find the recorded exon inclusion enrichment index belonging to G21U C22G and report it.
**A:** 2.39

**Q:** Find the recorded exon inclusion enrichment index belonging to G5C C6G U7C U10C U27G G28C and report it.
**A:** 2.55

**Q:** Find the recorded exon inclusion enrichment index belonging to A45G and report it.
**A:** 0.486

**Q:** Find the recorded exon inclusion enrichment index belonging to G5A C6U U7A G8U C9A A35U C36G and report it.
**A:** 0.00319

**Q:** Find the recorded exon inclusion enrichment index belonging to G5C C6U G8C C9U U10C G43A and report it.
**A:** 3.52

**Q:** Find the recorded exon inclusion enrichment index belonging to G5A C6G U7G G8U C9G and report it.
**A:** 0.00173

**Q:** Find the recorded exon inclusion enrichment index belonging to G5C C6U G8C C9U U10C A23U C24A and report it.
**A:** 0.79

**Q:** Find the recorded exon inclusion enrichment index belonging to G5A C6G U7G C9A G13U and report it.
**A:** 0.000555

**Q:** Find the recorded exon inclusion enrichment index belonging to G5A C6U U7A G8U C9A A45U G46U and report it.
**A:** 0.0214

**Q:** Find the recorded exon inclusion enrichment index belonging to G5A U7C G8A U10C A47C and report it.
**A:** 2.83

**Q:** Find the recorded exon inclusion enrichment index belonging to G5A C6G U7G C9A A35U and report it.
**A:** 0.000728

**Q:** Find the recorded exon inclusion enrichment index belonging to G2C U3G G5A C6U U7A G8U C9A and report it.
**A:** 0.0859
